Each recorded value in this set is attributed to ChEMBL document CHEMBL2346612.

Test system: HepG2
assay-name: Reduction in cholesterol biosynthesis in human HepG2 cells incubated at 5 uM for 14 hrs followed by sodium [14C]-acetate addition measured after 4 hrs
Type: functional, cell-based
Calls of active or inactive are those of the source. No cut-off for these calls is given here.
// allowed return values: true (1) for active, false (0) for inactive

# input Could you kindly confirm the outcome this assay logged for CC(C)(CO)NC(=O)/C=C1/CC[C@H]2[C@@H]3CC=C4C[C@@H](O)CC[C@]4(C)[C@H]3CC[C@]12C ?
# output false (0)

# input Quick one: C[C@]12CC[C@H](O)CC1=CC[C@@H]1[C@@H]2CC[C@]2(C)/C(=C/C(=O)NCCO)CC[C@@H]12
# output true (1)

# input Next record, please: CC(C)CCNC(=O)/C=C1/CC[C@H]2[C@@H]3CC=C4C[C@@H](O)CC[C@]4(C)[C@H]3CC[C@]12C
# output false (0)

# input Same again, this time with COC(=O)CNC(=O)/C=C1\CC[C@H]2[C@@H]3CC=C4C[C@@H](O)CC[C@]4(C)[C@H]3CC[C@]12C
# output false (0)

# input What about this compound? C[C@]12CC[C@H](O)CC1=CC[C@@H]1[C@@H]2CC[C@]2(C)/C(=C\C(=O)NCCO)CC[C@@H]12
# output false (0)

# input Now consider C[C@]12CC[C@H](O)CC1=CC[C@@H]1[C@@H]2CC[C@]2(C)/C(=C\C(=O)NC(CO)(CO)CO)CC[C@@H]12 and answer again.
# output false (0)

# input Could you do the same for CC(C)CCNC(=O)/C=C1\CC[C@H]2[C@@H]3CC=C4C[C@@H](O)CC[C@]4(C)[C@H]3CC[C@]12C , please?
# output true (1)

# input Moving on to CN(C)C(=O)CNC(=O)/C=C1\CC[C@H]2[C@@H]3CC=C4C[C@@H](O)CC[C@]4(C)[C@H]3CC[C@]12C
# output true (1)

# input Continue with CC(CO)(CO)NC(=O)/C=C1/CC[C@H]2[C@@H]3CC=C4C[C@@H](O)CC[C@]4(C)[C@H]3CC[C@]12C
# output false (0)
